target: T1, Human TIM-3 Human Fc tagged protein (human, fluorescently labeled with HiLyte Fluor 555 (sites not given)); test: capture slide probed with labeled TIM-3-Fc;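 further: IgG from single CD138-enriched plasma cells, isolated from lymphocytes, immobilized on a derivatized glass slide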
T1 construct: Bought construct; also called TIM-3 protein tagged with human Fc; ACROBiosystems catalog no: TM3-H5258
measurementType: binding result

{"binder": "SCT-Fa193 (antibody, V domains shown, murine IgG) VH: QVQLRQSGAELARPGASVKLSCKASGYTFTSYGITWVKQRTGQGLEWIGEIYPRSGNIYYNEKFKGKVTLTADKSSSTAYMELRSLTSEDSAVYFCARSTAVVAGGFDYWGQGTTLTVSS VL: DVVMTQSPSSLTVTTGERVTVNCKSSQSLLNSRIQKNSLTWYQQKPGQPPKLLIYWASTRESGVPDRFTGSGSGTDFTLTISSVQAEDLAIYYCQNDYNYPWTFGGGTKLEIK", "measurementType": "binding result", "reading": "binds"}
{"binder": "SCT-Fa033 (antibody, V domains shown, murine IgG) VH: EVQLQQSGAELVKPGASVKLSCTASGFNIKDYYMHWVRQRTEQGLEWIGRIDPEDGETKYAPKFQGKATITAATSSNTPYLQLSGLTSEDTAVYYCGRSNPYYFDYWGQGTTLTVSS VL: DIQMNQSPSSLSASLGDRITINCHASQNINVWLSWYQQKPGNIPKLLIYKASNLHTGVPSRFSGSGSVTVFTLTISSLQPEDIATYYCQQGQNYPYTFGGGTKLEIK", "measurementType": "binding result", "reading": "binds"}
{"binder": "SCT-Fa155 (antibody, V domains shown, murine IgG) VH: QVQLQQPGTELVKPGASVKVSCKASGYTFISYWMHWVKQRPGQGLEWIGNIDPNSGGTNYNEKFKSKAILTVDKSSSTAYMQLSSLTSEDSAVYFCARWGWDGFAYWGQGTLVTVSA VL: DVVMTQTPLSLPVSLGDQASISCRSSQSLENSNGNTYLNWYLQKPGQSPQLLIYRISTRFSGVLDRFSGSGSGTDFTLKISRVEAEDLGVYFCLQVTHVPYTFGGGTKLEIK", "measurementType": "binding result", "reading": "binds"}
